B1: ZER1 (parent)
chain: KEMARKVIEHCSNFKEENMDTSR

Variants of: B1
assayRemarks: protein stability index of a GFP-peptide fusion (GPS, HEK-293T) (PSI 1-6); higher = more stable;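 further: lentivirally expressed fusions sorted by FACS into six bins by GFP to DsRed ratio, PSI derived from sequencing read proportions per bin multiplied by bin number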
conditionInfo: c terminus: native
Cut-off 3 on protein stability index, inclusive. At or above means T; below means F.

seqString: KEMARKVIEHCLNFKEENMDTSR
class: F

seqString: KEQARKVIEHCSNFKEENMDTSR
class: T

seqString: KEMARKVIEHCSNFKEENMETSR
class: F

seqString: KEMARKVIEHCSNFKEENMDYSR
class: F

seqString: KEMARKVIEHCSNFKEENMDTSW
class: T

seqString: KEMARKVIEHCINFKEENMDTSR
class: F

seqString: KEMARKVIEHSSNFKEENMDTSR
class: T

seqString: SEMARKVIEHCSNFKEENMDTSR
class: T

seqString: KEMARKVIEHCSNFKKENMDTSR
class: T

seqString: KEMARKVIYHCSNFKEENMDTSR
class: T

seqString: KEMARKVIECCSNFKEENMDTSR
class: T

seqString: KEMARKVIEHASNFKEENMDTSR
class: T

seqString: KEMARWVIEHCSNFKEENMDTSR
class: F

seqString: KEMARKVIEHCSNFKTENMDTSR
class: T

seqString: KEMARKVIHHCSNFKEENMDTSR
class: T

seqString: KEMARKVKEHCSNFKEENMDTSR
class: T

seqString: KEMAYKVIEHCSNFKEENMDTSR
class: F

seqString: KEMARKAIEHCSNFKEENMDTSR
class: T

seqString: KEMARKVIEHCSNFKEENMDGSR
class: T

seqString: KEMARKGIEHCSNFKEENMDTSR
class: T

seqString: KEMAPKVIEHCSNFKEENMDTSR
class: T

seqString: KEMARKVIEHCSNFKCENMDTSR
class: T

seqString: KEMARKVIEHCSNFKESNMDTSR
class: T

seqString: KRMARKVIEHCSNFKEENMDTSR
class: T

seqString: KEMARKVIEHCSNFFEENMDTSR
class: T

seqString: KEMARKVIEHCSNFKEENMDSSR
class: T

seqString: KEMARKVIEHCSNFKEENMDWSR
class: F

seqString: KEMARKVIEHCSNFKEENQDTSR
class: T

seqString: KEMARKVIKHCSNFKEENMDTSR
class: T

seqString: KEMARKVAEHCSNFKEENMDTSR
class: T

seqString: KETARKVIEHCSNFKEENMDTSR
class: T

seqString: KEMARKVIEHCSNFKEENMMTSR
class: F

seqString: KEMARKVIEHCSNFKEENMDTTR
class: T

seqString: KEMARKVIEWCSNFKEENMDTSR
class: F

seqString: KEMARKCIEHCSNFKEENMDTSR
class: T

seqString: KEMYRKVIEHCSNFKEENMDTSR
class: F

seqString: KEMARKVIEHCSNFKEENMKTSR
class: F

seqString: KEMARKVIEHESNFKEENMDTSR
class: T

seqString: KEMARKVIEHCSNFKEENMDCSR
class: T

seqString: KEMNRKVIEHCSNFKEENMDTSR
class: T

seqString: KEMARKVIEHCSNFKFENMDTSR
class: F

seqString: KEMARKLIEHCSNFKEENMDTSR
class: F

seqString: KEMARKVIEHCSNNKEENMDTSR
class: T

seqString: KEMARKVIEHCQNFKEENMDTSR
class: T
